- target or system: full-length beta-Catenin (Uniprot ID P35222) (Homo sapiens (Human)) (UniProt P35222)
- test summary: fluorescence polarization competition; displacement of 5FAM-TCF4(10-53) from full-length beta-catenin
Starred links: 1 amine or outer side, 2 acyl side, 3 side chain; linkers in the order of their positions; H or OH if unused. Positions of bridges follow the written chain, without caps; N, C: chain ends. Non-standard residues stand in square brackets, D forms with d. Primed or numbered codes have the meaning given here. B5(4) = 2,2-bis(4-pentenyl)glycine = 2-amino-2-(pent-4-en-1-yl)hept-6-enoic acid (stitching residue), C=CCCCC(CCCC=C)(N[*:1])C(=O)[*:2]; PyrS2 = (S)-3-amino-1-((pent-4-en-1-yloxy)carbonyl)pyrrolidine-3-carboxylic acid, C=CCCCOC(=O)N1CC[C@@](N[*:1])(C(=O)[*:2])C1; B5(27) = 2-amino-2-(pent-4-en-1-yl)hept-6-enoic acid (two alkene side-chain arms), C=CCCCC(CCCC=C)(N[*:1])C(=O)[*:2]; MePpzNva = (S)-2-amino-5-(4-methylpiperazin-1-yl)pentanoic acid, CN1CCN(CCC[C@H](N[*:1])C(=O)[*:2])CC1; B5(3) = 2,2-bis(4-pentenyl)glycine (stitching residue), C=CCCCC(CCCC=C)(N[*:1])C(=O)[*:2]; Phe(2-Cl) = N[C@@H](Cc1ccccc1Cl)C(=O)O; Bta = N[C@@H](Cc1csc2ccccc12)C(=O)O; αAllylPro = C=CC[C@@]1(C(=O)O)CCCN1; tBuAla = CC(C)(C)C[C@H](N)C(=O)O; 3Thi = N[C@@H](Cc1ccsc1)C(=O)O; S8 = C=CCCCCCC[C@](C)(N)C(=O)O
Rule: IC50 below 20 nM gives TRUE. Equal to or above 20 nM gives FALSE.

{"columns": ["binder", "category label"],
 "data": [
  ["Ac-[αAllylPro]D[tBuAla][B5(27)]DDAAFL[PyrS2][3Thi][Bta]F-NH2 (staple 1-4, 4-11) [I-1496]", "FALSE"],
  ["Ac-[αAllylPro]D[tBuAla][B5(4)]DTAAFN[PyrS2][3Thi][Bta]Q-NH2 (staple 1-4, 4-11) [I-844]", "TRUE"],
  ["Ac-[αAllylPro]D[tBuAla][B5(4)]DTAAFN[PyrS2][3Thi][Bta]H-NH2 (staple 1-4, 4-11) [I-845]", "TRUE"],
  ["Ac-[αAllylPro]D[tBuAla][B5(4)]DDA[MePpzNva]FL[PyrS2][3Thi][Bta]Q-NH2 (staple 1-4, 4-11) [I-1503]", "FALSE"],
  ["Ac-[αAllylPro]D[tBuAla][B5(3)]DEAAFL[S8][Phe(2-Cl)][Bta]Q-NH2 (staple 1-4, 4-11) [I-1096]", "TRUE"]
]}

Cited source: patent US20240116985A1
